- SYSTEM NAME: UB-PEPC (purified monoubiquitinated p110:p107 heterotetrameric PEPC of germinating sorghum seeds; CP21) (Sorghum bicolor)
- Construct: native, purified from 48 h germinated seeds, untagged; intact N-terminus, not phosphorylated at Ser7; heterotetramer ~460 kDa of p110 and p107 in equivalent ratio; p110 = p107 monoubiquitinated at Lys624
- Sequence (P29195 whole entry, one chain of several): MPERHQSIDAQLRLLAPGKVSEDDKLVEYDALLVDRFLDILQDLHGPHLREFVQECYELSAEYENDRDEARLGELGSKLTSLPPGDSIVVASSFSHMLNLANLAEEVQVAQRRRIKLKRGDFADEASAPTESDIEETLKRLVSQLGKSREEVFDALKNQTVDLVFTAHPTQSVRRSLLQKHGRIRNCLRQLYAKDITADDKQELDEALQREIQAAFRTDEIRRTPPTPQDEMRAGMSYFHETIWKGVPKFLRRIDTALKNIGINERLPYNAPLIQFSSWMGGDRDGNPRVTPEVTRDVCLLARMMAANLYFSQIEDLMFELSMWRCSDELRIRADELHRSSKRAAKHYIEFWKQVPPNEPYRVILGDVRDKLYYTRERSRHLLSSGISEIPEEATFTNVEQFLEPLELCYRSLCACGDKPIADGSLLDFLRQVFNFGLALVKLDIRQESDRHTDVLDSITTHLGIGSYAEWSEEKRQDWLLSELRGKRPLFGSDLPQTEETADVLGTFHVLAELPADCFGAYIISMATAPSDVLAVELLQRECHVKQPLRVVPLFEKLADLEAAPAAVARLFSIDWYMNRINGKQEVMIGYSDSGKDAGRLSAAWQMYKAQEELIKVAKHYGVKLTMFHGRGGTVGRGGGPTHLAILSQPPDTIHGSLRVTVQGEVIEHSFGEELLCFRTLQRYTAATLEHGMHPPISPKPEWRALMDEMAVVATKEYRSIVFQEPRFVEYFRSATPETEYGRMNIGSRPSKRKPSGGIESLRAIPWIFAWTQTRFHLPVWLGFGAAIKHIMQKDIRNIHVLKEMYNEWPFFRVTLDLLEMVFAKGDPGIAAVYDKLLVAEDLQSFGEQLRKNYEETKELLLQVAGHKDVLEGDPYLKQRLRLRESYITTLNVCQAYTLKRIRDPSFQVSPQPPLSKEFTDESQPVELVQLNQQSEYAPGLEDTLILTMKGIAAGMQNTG
- MEASUREMENT NOTES: biochemical
- Set-up: PEPC activity of purified enzyme with 2 mM metabolite effector at subsaturating 0.1 mM PEP, relative to control
- CONDITION SET: pH 7.3, 0.1 mM PEP; read-out: % of control remaining
- Protocol: The impact of various metabolite effectors (2mM each) on the activity of the purified, monoubiquitinated heterotetrameric sorghum seed PEPC (UB-PEPC) versus the in vitro deubiquitinated homotetrameric enzyme (deUB-PEPC) was assessed using suboptimal assay conditions (0.1mM PEP, pH 7.3 and 8.0). With the exception of L-malate, monoubiquitination of germinating sorghum seed PEPC (CP21) exerted little to no influence in the response to the metabolites tested (Supplementary Table S2 at JXB online). […]
Exercise: state measured remaining activity at 2000 µM for each of the compounds provided.
Dear colleague, please return just the value in %, with no unit written.

(Q) Form field: reported remaining activity at 2000 µM of N[C@@H](CC(=O)O)C(=O)O [Aspartate]
(A) 94

(Q) Form field: reported remaining activity at 2000 µM of "O=C[C@H](O)[C@H](O)[C@H](O)COP(=O)(O)O"
(A) 98

(Q) Could you tell me which remaining activity at 2000 µM is on file for O=P(O)(O)OC1O[C@H](CO)[C@@H](O)[C@H](O)[C@H]1O (stereo partly shown) ?
(A) 115

(Q) Sample O=C(O)C[C@H](O)C(=O)O [L-malate] — what was its remaining activity at 2000 µM?
(A) 53

(Q) For the compound O=C(O)C[C@H](C(=O)O)[C@@H](O)C(=O)O [isocitrate] , what remaining activity at 2000 µM is on record?
(A) 47

(Q) What remaining activity at 2000 µM value was documented for this compound, O=P(O)(O)OCC(O)CO (stereo not shown) ?
(A) 107

(Q) May I ask what remaining activity at 2000 µM has been recorded for O=P(O)(O)OC[C@H]1OC(O)[C@H](O)[C@@H](O)[C@@H]1O (stereo partly shown) ?
(A) 127

---

- SYSTEM NAME: UB-PEPC (purified monoubiquitinated p110:p107 heterotetrameric PEPC of germinating sorghum seeds; CP21) (Sorghum bicolor)
- Construct: native, purified from 48 h germinated seeds, untagged; intact N-terminus, not phosphorylated at Ser7; heterotetramer ~460 kDa of p110 and p107 in equivalent ratio; p110 = p107 monoubiquitinated at Lys624
- MEASUREMENT NOTES: biochemical
- Set-up: PEPC activity with 2 mM metabolite at subsaturating 0.1 mM PEP, as per cent of control
- CONDITION SET: pH 8.0, 0.1 mM PEP; read-out: % of control remaining
Provide the reported remaining activity at 2000 µM of each item.
Value expressed in %; do not type the unit.

(Q) Please report the recorded remaining activity at 2000 µM for O=P(O)(O)OCC(O)CO (stereo not shown) [Glycerol-3-P] .
(A) 124

(Q) Using the record for O=C(O)C[C@H](C(=O)O)[C@@H](O)C(=O)O [isocitrate] , report its remaining activity at 2000 µM.
(A) 38

(Q) May I ask what remaining activity at 2000 µM has been recorded for O=P(O)(O)OC1O[C@H](CO)[C@@H](O)[C@H](O)[C@H]1O (stereo partly shown) [Glc-1-P] ?
(A) 116

(Q) Report remaining activity at 2000 µM for O=C(O)CC(O)C(=O)O (stereo not shown) [Malate] please.
(A) 93

(Q) Quick one: remaining activity at 2000 µM for O=C[C@H](O)[C@H](O)[C@H](O)COP(=O)(O)O [Ribose-5-P] ?
(A) 105

(Q) Which remaining activity at 2000 µM is listed for O=P(O)(O)OC[C@H]1OC(O)[C@H](O)[C@@H](O)[C@@H]1O (stereo partly shown) [Glc-6-P] ?
(A) 121

(Q) // lookup remaining activity at 2000 µM for N[C@@H](CC(=O)O)C(=O)O [Aspartate]
(A) 109

---

- SYSTEM NAME: DeUB-PEPC (in vitro deubiquitinated p107 homotetrameric PEPC of germinating sorghum seeds; CP21) (Sorghum bicolor, UniProt P29195)
- Construct: p107 homotetramer; not phosphorylated at Ser7
- Sequence (P29195 whole entry): as the sequence (P29195 whole entry, one chain of several) above
- MEASUREMENT NOTES: biochemical
- Set-up: PEPC activity with 2 mM metabolite at subsaturating 0.1 mM PEP, as per cent of control
- CONDITION SET: pH 8.0, 0.1 mM PEP; read-out: % of control remaining
Consider the following molecules; for each one, report its remaining activity at 2000 µM.
Kindly provide the numeric value in % only, without the unit symbol.

(Q) Would you kindly share the measured remaining activity at 2000 µM for O=C(O)C[C@H](C(=O)O)[C@@H](O)C(=O)O [isocitrate] ?
(A) 38

(Q) Field request: remaining activity at 2000 µM | item: O=P(O)(O)OC[C@H]1OC(O)[C@H](O)[C@@H](O)[C@@H]1O (some centres unmarked)
(A) 120

(Q) Request the reported remaining activity at 2000 µM associated with O=P(O)(O)OCC(O)CO (centres unmarked)
(A) 120

(Q) # remaining activity at 2000 µM lookup, item "O=C[C@H](O)[C@H](O)[C@H](O)COP(=O)(O)O"
(A) 105

(Q) Dear colleague, I am looking for the recorded remaining activity at 2000 µM of the following molecule: O=P(O)(O)OC1O[C@H](CO)[C@@H](O)[C@H](O)[C@H]1O (some centres unmarked)
(A) 116
